meta.source: PubChem BioAssay

biological target: Torsin-1A-interacting protein 2 (Homo sapiens); assay: LULL1 binders on small-molecule microarray, primary screen, cell lysate, human LULL1 lysate, 635/667 nm fluorescence (AID 1092); settings: hLULL1 lysate binding, 635 nm fluorescence, higher = more signal;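 note: probe is lysate of COS7 cells overexpressing human LULL1; score merges per-feature 667 nm fluorescence with signal-to-noise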
Below, each of the compounds is paired with its reported composite z-score value.

| compound | composite z-score |
| --- | --- |
| CCOC(=O)[C@H](CC(C)C)NC(=O)CCC1CC(OC(=O)NCCc2ccc(F)cc2)CC2(CCCC(COC(=O)NCCc3ccccc3OC)O2)O1 (stereo partly drawn) | 1.73 |
| CCCCC#C[C@@H]1C=C[C@H](Oc2cc(OC)c(OC)c(OC)c2)[C@@H](COC(=O)OCC)O1 | -0.16 |
| COC(=O)C=CCCc1coc(C=CCNC(=O)OC)n1 | 0.254 |
| CC(C)=CCCC(C)=CCON=C1C[C@@H](O)[C@@H](O)[C@@H]2[C@@H]3C(=O)N(c4ccc(F)cc4F)C(=O)[C@@H]3CC[C@H]12 | 2.05 |
| CC(CCC(=O)OC[C@H]1O[C@H](C#Cc2ccccc2)C=C[C@@H]1Oc1ccc(C)cc1)=NO[C@H](C)c1cn([C@H](CO)Cc2ccccc2)nn1 | 1.05 |
| CC(C)(C)N1C(=O)[C@H]2[C@H]3[C@H](O)[C@H](O)CC(=NOCc4ccccc4)[C@H]3CC[C@H]2C1=O | 0.351 |
| COc1ccc(O[C@@H]2[C@H](O)CO[C@@H]2C=Cc2ccccc2)cc1 | 0.11 |
| Cc1ccc(S(=O)(=O)N[C@@H]2COC(=O)[C@@H](C)COC(=O)CC=C[C@H]2C)cc1 | -0.548 |

====

Below, each of the compounds is paired with its reported composite z-score value.
target: Pro-neuregulin-1, membrane-bound isoform (Homo sapiens) (UniProt Q02297); assay: NRG1 binders on small-molecule microarrays, primary screen, psychiatric disease protein project, biochemical, small-molecule microarray, fluorescence 635/667 (AID 1075); settings: NRG1 binding, 635 nm fluorescence, higher = more signal;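 note: score combines 667 nm spot fluorescence with signal to noise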
Sequence (Q02297 whole entry, looked up, canonical isoform): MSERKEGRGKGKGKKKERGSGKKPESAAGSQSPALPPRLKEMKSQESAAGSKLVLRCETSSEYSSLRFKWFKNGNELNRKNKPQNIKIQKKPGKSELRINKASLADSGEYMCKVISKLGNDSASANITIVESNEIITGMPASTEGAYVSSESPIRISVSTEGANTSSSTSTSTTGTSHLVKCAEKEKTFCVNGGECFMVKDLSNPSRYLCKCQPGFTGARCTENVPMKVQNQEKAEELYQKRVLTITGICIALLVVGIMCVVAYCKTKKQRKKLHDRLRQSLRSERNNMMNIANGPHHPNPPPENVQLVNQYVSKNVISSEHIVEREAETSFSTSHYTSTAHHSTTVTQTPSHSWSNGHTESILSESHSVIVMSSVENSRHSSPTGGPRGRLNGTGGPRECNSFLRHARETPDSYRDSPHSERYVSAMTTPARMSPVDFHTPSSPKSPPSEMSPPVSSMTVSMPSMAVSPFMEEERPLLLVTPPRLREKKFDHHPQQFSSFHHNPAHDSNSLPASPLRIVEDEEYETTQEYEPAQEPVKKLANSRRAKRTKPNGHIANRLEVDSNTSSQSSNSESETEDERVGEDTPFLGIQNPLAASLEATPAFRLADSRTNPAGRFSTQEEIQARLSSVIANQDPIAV

| compound | tested_on | composite z-score |
| --- | --- | --- |
| CCOC(=O)[C@H](Cc1ccccc1)NC(=O)CCC1CC(OC(=O)NCc2cccc3ccccc23)CC2(CCCC(COC(=O)NCCC(C)C)O2)O1 (some centres not stated) | Pro-neuregulin-1, membrane-bound isoform (Homo sapiens) (UniProt Q02297) | -0.348 |
| COc1ccc(C#C[C@@H]2C=C[C@H](OC(C)=O)[C@@H](COC(C)=O)O2)cc1 | Pro-neuregulin-1, membrane-bound isoform (Homo sapiens) (UniProt Q02297) | 0.198 |
| C[C@@H]1NC(=O)[C@@H](C)COC(=O)[C@H](C)NC(=O)[C@@H](C)COC1=O | Pro-neuregulin-1, membrane-bound isoform (Homo sapiens) (UniProt Q02297) | -0.292 |
| C=C(C)C(=O)OCC1CN2[C@@H](CC[C@@H](C)[C@@H]2c2ccc(Br)cc2)C(=O)O1 (some centres not stated) | Pro-neuregulin-1, membrane-bound isoform (Homo sapiens) (UniProt Q02297) | -0.0076 |
| CCOC(=O)[C@H](CC(C)C)NC(=O)CCC1CC(OC(=O)NCCc2ccc(F)cc2)CC2(CCCC(COC(=O)NCCOc3ccccc3)O2)O1 (some centres not stated) | Pro-neuregulin-1, membrane-bound isoform (Homo sapiens) (UniProt Q02297) | 0.996 |
| CC(=O)OC[C@H]1O[C@H](CCON=C2[C@H]3CCn4c(=O)n(-c5ccccc5)c(=O)n4[C@H]3[C@H](O)[C@@H]3O[C@H]23)C=C[C@@H]1OC(C)=O | Pro-neuregulin-1, membrane-bound isoform (Homo sapiens) (UniProt Q02297) | -0.147 |
| CCOC(=O)[C@H](Cc1ccccc1)NC(=O)CCC1CC(OC(=O)NCc2cccc3ccccc23)CC2(CCCC(COC(=O)NCC(c3ccccc3)c3ccccc3)O2)O1 (some centres not stated) | Pro-neuregulin-1, membrane-bound isoform (Homo sapiens) (UniProt Q02297) | 0.301 |
